meta.source: patent US11767341B2

Below are MIC values recorded for S. pneumoniae UNT-039, MP-627, TP1517 (mefA).

Item under review: CSC1O[C@H]([C@H](NC(=O)[C@H]2NC[C@@H]3CCCCO[C@H]32)[C@H](C)Cl)C(O)[C@@H](O)[C@H]1O (stereo partly drawn) [FSA-22091] . Reported MIC?
< 0.0313 µg/mL

Field request: MIC | item: CSC1O[C@H]([C@H](NC(=O)[C@H]2NC[C@@H]3CC=CCO[C@H]32)[C@H](C)Cl)C(O)[C@@H](O)[C@H]1O (stereo partly drawn) [FSA-24035]
≤ 0.0313 µg/mL

Endpoint output: MIC of CSC1O[C@H]([C@H](NC(=O)[C@@H]2[C@@H]3OCCCC[C@H]3CN2C)[C@H](C)Cl)C(O)C(O)[C@H]1O (stereo partly drawn) [FSA-24040] . Value?
≤ 0.0313 µg/mL

###

valueType: MIC

Give MIC (E. coli MMX 0121 ΔTolC) of the following compound: CSC1O[C@H]([C@H](NC(=O)[C@H]2NC[C@@H]3C=C(c4ccc(F)cc4)CCO[C@@H]23)[C@H](C)Cl)C(O)[C@@H](O)[C@H]1O (some centres unmarked) [FSA-507052]
> 32 µg/mL

Find MIC (E. coli MMX 0121 ΔTolC) for the entry CSC1O[C@H]([C@H](NC(=O)[C@H]2NC[C@@H]3CC(c4ccccc4)=CCO[C@H]32)[C@H](C)Cl)C(O)[C@@H](O)[C@H]1O (some centres unmarked) [FSA-507056]
> 32 µg/mL

Form entry - test system: E. coli MMX 0121 ΔTolC; read-out: MIC; compound: C[C@@H](O)[C@@H](NC(=O)[C@H]1NC[C@@H]2CC=CCO[C@H]21)[C@H]1OC(CN=[N+]=[N-])[C@H](O)[C@H](O)C1O (some centres unmarked) [FSA-211064]
> 64 µg/mL

// fetch E. coli MMX 0121 ΔTolC MIC for Cc1ccc(S(=O)(=O)OCC2O[C@H]([C@H](NC(=O)[C@H]3NC[C@@H]4CC=CCO[C@H]43)[C@@H](C)O)C(O)[C@@H](O)[C@H]2O)cc1 (some centres unmarked) [FSA-211030]
> 64 µg/mL

What value of MIC on E. coli MMX 0121 ΔTolC does CSC1O[C@H]([C@H](NC(=O)[C@H]2NC[C@H]3CC=CCO[C@H]32)[C@H](C)Cl)C(O)[C@@H](O)[C@H]1O (some centres unmarked) [FSA-507051] have?
> 32 µg/mL

###

Endpoint: MIC. System: S. aureus BAA 977 iErmA. Items follow.

Reported MIC, molecule CSC1O[C@H]([C@H](NC(=O)[C@H]2NC[C@@H]3C[C@@H](O)[C@@H](O)CO[C@H]32)[C@H](C)Cl)C(O)[C@@H](O)[C@H]1O (stereo partly shown) : ____
> 64 µg/mL

Fill blank: measured MIC of the molecule Cc1ccc(S(=O)(=O)OCC2O[C@H]([C@H](NC(=O)[C@H]3NC[C@@H]4CC=CCO[C@H]43)[C@@H](C)O)C(O)[C@@H](O)[C@H]2O)cc1 (stereo partly shown) is ____.
> 64 µg/mL

Look up MIC: CSC1O[C@H]([C@H](NC(=O)[C@H]2NC[C@@H]3CN(C)CCO[C@H]32)[C@H](C)Cl)C(O)C(O)[C@H]1O (stereo partly shown)
> 64 µg/mL

Consider the molecule CSC1O[C@H]([C@H](NC(=O)[C@H]2NC[C@@H]3C=C(c4ccccc4)CCO[C@@H]23)[C@H](C)Cl)C(O)[C@@H](O)[C@H]1O (stereo partly shown) and give its measured MIC.
> 32 µg/mL
